Tested on: A498
test_name: NCI tumour cell line growth inhibition, 48 h
The source made the active and inactive calls. Rule as the data show it: active = GI50 up to about 1.1 µM and inactive = higher.
API: response.call in true for active, false for inactive

// below: answered compounds
Problem: Please let me know the test result on file for CCOC(=O)C1=c2[nH]c3cccc4cccc(c43)n2C(=O)CC1c1ccccc1 (stereo unspecified) .
Result: false

Problem: Hi, sorry to bother you, what did the test record for COc1cc(C2c3cc4c(cc3[C@@H](Nc3ccc([N+](=O)[O-])cc3)C3COC(=O)[C@H]23)OCO4)cc(OC)c1O (stereo partly specified) ?
Result: true

Problem: Please state the recorded outcome for this compound: "CN1CCN(CCCCNc2cc3c4ccccc4c(NCCCCN4CCN(C)CC4)cc3c3ccccc23)CC1"
Result: false

Problem: For this compound, state the assay outcome: Cc1ccc(/C=C2\CCCC(CN(C)C)C2=O)cc1 (stereo unspecified)
Result: false

Problem: Hello, I am checking results. What call was entered for "O=C(O)C(=Cc1ccc(-c2ccccc2)cc1)C(=O)O" ?
Result: false

---
Problem: Look up the recorded call for CC1C2CC(CC23OCC(CCl)O3)C1(C)C (stereo unspecified) in this test.
Result: false

Problem: Call for entry "O=C(O)[C@H]1NC[C@@H]2ON=C(Br)[C@@H]21" :
Result: false

Problem: Call for entry "COc1ccc2c(c1)CC1=C(O2)c2ccc(OC)cc2OC1" :
Result: false

Problem: Each compound tested received a call. Report the one for Nc1ccccc1SC(C[N+](=O)[O-])c1ccc2c(c1)OCO2 (stereo unspecified) .
Result: false

Problem: Could you check what this test reported for "NC(=O)CC1(O)C=CC(=O)C=C1" ?
Result: false

* * *

Test system: OVCAR-5
test_name: NCI tumour cell line growth inhibition, 48 h
Active and inactive are the calls of the source. Cut-off read from the data, not from the text of the source: active = GI50 up to about 1.1 µM and inactive = higher.
Listed compounds paired with reported GI50

Item: "Cn1c2ccccc2n2c3ncccc3c(=O)cc12" | GI50: > 100 µM (inactive)

# compound "CCOC(=O)NCC(=O)NCC(=O)NCC(N)=O" ; its GI50 = > 100 µM (inactive)

Input CCOc1ccc2nc(NC(=O)/C(CC(=O)CC(C3=C(O)c4ccccc4CC3=O)c3ccccc3)=N\O)sc2c1 (stereo unspecified) . Output GI50: > 100 µM (inactive)

# compound "Cn1cnc2[nH]c(=O)[nH]c(=S)c21" ; its GI50 = > 100 µM (inactive)

get_value(item= C=C1C(=O)CCC1C(=O)O (stereo unspecified) , readout=GI50) returns > 100 µM (inactive)

---
Kindly note the recorded GI50 for "CC(=O)Nc1ccc(S(=O)(=O)/N=c2/sc(S(N)(=O)=O)nn2C)cc1" , which is > 100 µM (inactive)

The compound CC1C2CC(CC2=O)C1(C)C (stereo unspecified) showed GI50 equal to > 100 µM (inactive)

Memo: "Cc1ccc2nc3c(C)cc(=O)cc-3sc2c1" , reported GI50: 27.9 µM (inactive)

Value of measured GI50 for the entry "N=C(N)SCCCN" : 32.6 µM (inactive)

Reported GI50 for "COc1ccc(CCc2cc(OC)c(O)c(OC)c2)cc1" was 44 µM (inactive)

Lab note: COC(=O)C1C(O)CCC2CN3CCc4c([nH]c5cccc(OC)c45)C3CC21 (stereo unspecified) gave GI50 of > 100 µM (inactive)

* * *

System: NCI-H460
test_name: NCI tumour cell line growth inhibition, 48 h
Active and inactive are the calls of the source. Rule as the data show it: active = GI50 up to about 1.1 µM and inactive = higher.
recorded_metric: GI50

// known answers, use as guide
Summary for this molecule, "Clc1ccccc1/C=C/c1cscn1" : GI50 is > 100 µM (inactive)

The reported value for "NCc1ccc(O)c(O)c1" in terms of GI50 is > 100 µM (inactive)

For this molecule ( Cc1ccc(N(C(=O)Nc2ccc(F)c(Cl)c2)C2=NCC(C)S2)cc1 (stereo not drawn) ), measured GI50 is 45.1 µM (inactive)

# GI50 (molecule: "CN(/N=C(\C(=O)O)c1ccccc1)C1=NCCN1" ) is > 100 µM (inactive)

Short answer for CC1CCCC(C(=O)/C(=C/c2cccc(Cl)c2)C(=O)C(=O)O)C1 (stereo not drawn) : GI50 was 33 µM (inactive)

Next:
Entry under test: COC1OC(Cn2cc([N+](=O)[O-])nc2C)C(O)C(O)C1O (stereo not drawn) . Its GI50 was > 100 µM (inactive)

The measured GI50 associated with COC(=O)/C=C/[C@H]1[C@H](C)N1S(=O)(=O)c1ccc(C)cc1 (stereo partly drawn) reads > 100 µM (inactive)

Entry under test: "Clc1nc2c(N3CCCC3)nc(N3CCNCC3)nc2[nH]1" . Its GI50 was 17.6 µM (inactive)

* * *

System: PC-3
test_name: NCI tumour cell line growth inhibition, 48 h
The source made the active and inactive calls. No stated cut-off is given here; in the data, active = GI50 up to about 1.1 µM and inactive = higher.
recorded_metric: GI50

Look over these answered cases.
Entry "FC(F)(F)c1cccnc1Sc1nc2ccccc2s1" , GI50 reported as > 100 µM (inactive)

Please fill in: GI50 reported for O/N=C1/Nc2ccccc2C(=S)N2CSCC12 (stereo unspecified) = 73.8 µM (inactive)

The recorded GI50 for entry COC(=O)C1Cc2c(OC)ccc(OC)c2CC(C(=O)OC)C1=O (stereo unspecified) equals > 100 µM (inactive)

So for "O=C(N/N=C\c1ccc([N+](=O)[O-])cc1)c1ccccc1Nc1ccccc1C(=O)N/N=C/c1ccc([N+](=O)[O-])cc1" , the logged GI50 turned out to be > 100 µM (inactive)

Value of GI50 reported for the molecule O=C1/C(=C/c2ccccc2O)N=C(c2ccccc2)N1C1Nc2cc3c(cc2S1)NC(N1C(=O)/C(=C/c2ccccc2O)N=C1c1ccccc1)S3 (stereo unspecified) is 34.4 µM (inactive)

Further cases:
Form: molecule = "Brc1ccccc1-c1ncc(-c2ccccc2)o1" ; GI50 = 34.2 µM (inactive)

Entry CCOc1ccc2nc(NC(=O)/C(CC(=O)CC(C3=C(O)c4ccccc4CC3=O)c3ccccc3)=N\O)sc2c1 (stereo unspecified) , GI50 reported as > 100 µM (inactive)

Recorded result, "O=C(N(C1=CCCC1)N(c1ccccc1)c1ccccc1)C(F)(F)F" , GI50: 30.3 µM (inactive)

"O=C1c2ccccc2C2=Nc3ccncc3CN12" has a reported GI50 of > 100 µM (inactive)

* * *

Test system: HOP-62
test_name: NCI tumour cell line growth inhibition, 48 h
Activity calls are given as the source filed them. No stated cut-off is given here; in the data, active = GI50 up to about 1.1 µM and inactive = higher.
recorded_metric: GI50

Below are worked cases with known answers.
# GI50 (molecule: Cc1cc(O)c2c(c1)C[C@@H](O)C1=C2C(=O)c2c(O)ccc(OC3CC(O)C(OC4CC(OC5CCC(OC6CC(O)C(OC7CC(OC8CCC(O)C(C)O8)C(O)C(C)O7)C(C)O6)C(C)O5)C(O)C(C)O4)C(C)O3)c2C1=O (some centres undefined) ) is 0.232 µM (active)

Per the record, C/C(=N\NC(=N)N)C(CN(CC(C)C)CC(C)C)C(=O)Nc1ccc(C)cc1C (centres undefined) has GI50 of > 100 µM (inactive)

New cases:
Form field GI50, entry COc1ccc(OC)c2c1C(=O)C1CC1(Br)C2=O (centres undefined) : > 100 µM (inactive)

For this molecule ( COc1cccc2c1C(=O)c1c(O)c3c(c(O)c1C2=O)C[C@@](O)(C(=O)CO)CC3OC1CC(N(C)CCOCC(OC(C)=O)OC(C)=O)C(O)C(C)O1 (some centres undefined) ), measured GI50 is > 0.01 µM (active)

Measured GI50, "O=C(N/N=C\c1ccc([N+](=O)[O-])cc1)c1ccccc1Nc1ccccc1C(=O)N/N=C/c1ccc([N+](=O)[O-])cc1" : > 100 µM (inactive)

Short answer for CC1CCC23COC(=O)C2C(O)CCC3C1(C)CC(O)c1ccoc1 (centres undefined) : GI50 was > 100 µM (inactive)

* * *

# GI50 annotations
System: HCC 2998
test_name: NCI tumour cell line growth inhibition, 48 h
The source made the active and inactive calls. No stated cut-off is given here; in the data, active = GI50 up to about 1.1 µM and inactive = higher.

Recorded results for 3 compounds are shown here.
Form: compound = CC(C)C(CC(=O)OCC(CO)OC(=O)CC(C(C)C)C(C)C)C(C)C (stereo not given) ; GI50 = 15.8 µM (inactive)

Form: compound = COc1cccc(N2C(=O)[C@H]3CC(C)c4c([nH]c5ccccc45)[C@H]3C2=O)c1 (stereo not given in full) ; GI50 = > 100 µM (inactive)

Recorded result, "O=C1C2=Cc3ccccc3CCN2c2ccccc21" , GI50: 7.31 µM (inactive)

Others:
Memo: "O=C1Nc2ccccc2/C1=N/Nc1ccc([N+](=O)[O-])cc1[N+](=O)[O-]" , reported GI50: 11.6 µM (inactive)

So, "CC(C)(CN1CCCCC1)C(/C=C/c1ccccc1)=N\NC(=O)N/N=C(/C=C/c1ccccc1)C(C)(C)CN1CCCCC1" ? Its GI50 was 0.543 µM (active)

* * *

Test system: DU-145
test_name: NCI tumour cell line growth inhibition, 48 h
The source made the active and inactive calls. Cut-off read from the data, not from the text of the source: active = GI50 up to about 1.1 µM and inactive = higher.
Returns: one label drawn from Y = active, N = inactive

Completed entries (count: 5):
Problem: # outcome recorded in this test, key = "O=c1c(-c2ccccc2)c(SCCN2CCCCCC2)n(-c2ccccc2)c(=S)n1-c1ccccc1"
Result: N

Problem: Outcome logged for "CC(=O)Nc1ccc(S(=O)(=O)/N=c2/sc(S(N)(=O)=O)nn2C)cc1" in this assay:
Result: N

Problem: Test call, this compound: "Cc1cc2nc(-c3cc(C(C)(C)C)c(O)c(C(C)(C)C)c3)[nH]c2cc1C"
Result: N

Problem: State the result this test recorded for "Cc1nc(N)sc1/N=N/c1cc(Cl)c([N+](=O)[O-])cc1Cl" .
Result: N

Problem: Record lookup: outcome of this test for COc1cccc2c1C(=O)c1c(O)c3c(c(O)c1C2=O)C[C@@](O)(C(C)=O)C[C@@H]3OC1CC(O)C(O)C(C)O1 (some centres undefined) ?
Result: N

More entries:
Problem: Hi team, can someone confirm the assay call for CCOC(=O)C1=C(C)NC(C)=C(C(=O)OCCNC(=O)c2ccc(N=[N+]=[N-])cc2)C1c1ccccc1C(F)(F)F (centres undefined) ?
Result: N

Problem: Please let me know the test result on file for "O=C1c2ccccc2C2=Nc3ccncc3CN12" .
Result: N

Problem: Each compound tested received a call. Report the one for "CN(C)C(=C1c2cc([N+](=O)[O-])ccc2-c2ccc([N+](=O)[O-])cc21)N(C)C" .
Result: N

Problem: Answer briefly: the call reported for "COC(=O)c1cccc(OC)c1C#Cc1c(OC)cccc1OC" in this assay.
Result: N

Problem: # fetch the recorded call for "NC(=O)c1nnsc1NN=O" here
Result: N

Problem: I would be grateful if you could indicate the recorded call for "COc1cc2c3c(c4cc(OC)c(OC)cc4c2cc1OC)[C@H](O)[C@@H]1CCCN1C3" .
Result: Y
